# target.system: monkey GPC3-His protein (monkey)
# assay.details: ELISA, monkey GPC3-His coated; antibody 13.33 nM

| binder | OD450 nm |
| --- | --- |
| hAb003LH3L1 (antibody, human IgG1, V domains shown) VH: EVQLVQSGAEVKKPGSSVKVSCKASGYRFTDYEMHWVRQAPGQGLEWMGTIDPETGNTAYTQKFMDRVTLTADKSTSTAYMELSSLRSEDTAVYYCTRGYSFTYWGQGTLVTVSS VL: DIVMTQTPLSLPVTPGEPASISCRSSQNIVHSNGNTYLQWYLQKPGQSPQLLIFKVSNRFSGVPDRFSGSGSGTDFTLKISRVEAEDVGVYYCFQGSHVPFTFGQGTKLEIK | 2.36 |
| hAb006LH1L1a (antibody, human IgG1, V domains shown) VH: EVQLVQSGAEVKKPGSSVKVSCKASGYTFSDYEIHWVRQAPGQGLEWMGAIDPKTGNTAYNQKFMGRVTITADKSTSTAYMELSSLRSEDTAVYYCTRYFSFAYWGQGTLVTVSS VL: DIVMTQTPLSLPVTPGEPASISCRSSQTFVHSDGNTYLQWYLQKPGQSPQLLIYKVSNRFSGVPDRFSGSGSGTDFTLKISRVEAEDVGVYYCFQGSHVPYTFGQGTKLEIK | 1.82 |
| hAb005LH2L1 (antibody, human IgG1, V domains shown) VH: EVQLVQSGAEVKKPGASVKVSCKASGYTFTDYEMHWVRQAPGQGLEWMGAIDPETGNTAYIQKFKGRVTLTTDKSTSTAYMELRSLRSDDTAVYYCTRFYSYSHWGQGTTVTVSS VL: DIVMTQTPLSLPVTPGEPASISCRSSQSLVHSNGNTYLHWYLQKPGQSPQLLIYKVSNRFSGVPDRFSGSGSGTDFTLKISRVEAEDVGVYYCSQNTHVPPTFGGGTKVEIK | 1.15 |
| hAb006LH1L1 (antibody, human IgG1, V domains shown) VH: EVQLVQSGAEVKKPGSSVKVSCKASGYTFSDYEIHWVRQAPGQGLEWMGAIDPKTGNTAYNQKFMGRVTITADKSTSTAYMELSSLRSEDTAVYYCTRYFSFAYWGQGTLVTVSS VL: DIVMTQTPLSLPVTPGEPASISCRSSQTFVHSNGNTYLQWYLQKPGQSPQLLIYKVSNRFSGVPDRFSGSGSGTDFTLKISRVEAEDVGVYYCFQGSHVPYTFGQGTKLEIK | 2.56 |
| hAb006LH2L1b (antibody, human IgG1, V domains shown) VH: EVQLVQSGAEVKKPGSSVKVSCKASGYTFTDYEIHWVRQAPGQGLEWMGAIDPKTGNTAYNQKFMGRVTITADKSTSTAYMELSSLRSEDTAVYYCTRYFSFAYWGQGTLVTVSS VL: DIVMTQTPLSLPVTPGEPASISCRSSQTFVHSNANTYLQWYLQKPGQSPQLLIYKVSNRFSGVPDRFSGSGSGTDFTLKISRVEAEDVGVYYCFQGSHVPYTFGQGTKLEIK | 2.46 |
